Experiment: Potentiometric pH titration of polyalkylamines: protonation constants (basicity)
Format: physicochemical
Details: 25°±0.1° C., ca. 1.5 mM PAA; Ref. 3 determined by applicants
Experimental Endpoint: Log K2
Answers are plain numbers.

Molecule	Experimental Endpoint	Reading
CN(CCCNCc1ccccn1)CCCNCc1ccccn1 [compound 76]	Log K2	7.20
c1ccc(CCNCc2cccc(CNCCc3ccccn3)n2)nc1 [compound 63]	Log K2	7.61
Cc1cccc(CNCCNCCNCc2cccc(C)n2)n1 [compound 80]	Log K2	6.72
c1ccc(CNCCCNCCCNCc2ccccn2)nc1 [compound 64]	Log K2	7.44
Cc1cccc(CNCCCNCCCNCc2cccc(C)n2)n1 [compound 81]	Log K2	7.40

# context switch: different molecule, same Log K2
Endpoint output: Log K2 of c1ccc(CNCCNCCNCc2ccccn2)nc1 [compound 62] . Value?
6.95

* * *

Experiment: Potentiometric pH titration of polyalkylamines: protonation constants (basicity)
Format: physicochemical
Details: 25°±0.1° C., ca. 1.5 mM PAA; Ref. 3 determined by applicants
Experimental Endpoint: Log K1
Give bare numbers.

Quick batch: Log K1 for everything below.
1. c1ccc(CNCCNCCNCc2ccccn2)nc1 [compound 62]
2. c1ccc(CNCCCNCCNCc2ccccn2)nc1 [compound 72]
3. c1ccc(CCNCc2cccc(CNCCc3ccccn3)n2)nc1 [compound 63]

1. 8.91
2. 8.6
3. 8.75

* * *

So I've got a bunch of compounds here, and I need their Log K3 values.
Assay: Potentiometric pH titration of polyalkylamines: protonation constants (basicity)
Format: physicochemical
Conditions: 25°±0.1° C., ca. 1.5 mM PAA; Ref. 3 determined by applicants

// batch mode: one Log K3 value per listed entry
1. CN(CCCNCc1ccccn1)CCCNCc1ccccn1 [compound 76]
2. c1ccc(CNCCCNCCCNCc2ccccn2)nc1 [compound 64]
3. c1nc(CNCCCNCCCNCc2c[nH]cn2)c[nH]1 [compound 74]
4. c1ccc(CNCCCCNCCCNCc2ccccn2)nc1 [compound 78]
5. NCCNCc1cccc(CNCCN)n1 [compound 69]

1. 5.79
2. 6.34
3. 7.2
4. 6.60
5. 5.9

Go through the items and report each one's Log K3.
1. Cc1cccc(CNCCNCCNCc2cccc(C)n2)n1 [compound 80]
2. c1ccc(CNCCNCCNCc2ccccn2)nc1 [compound 62]

[4.1, 3.64]
